- Tested on: mice
- procedureSummary: phenylbenzoquinone test according to Siegmund (analgesic activity, contractions of the abdomen)
- Assay type: in vivo
- conditionParameters: Mus musculus, po, mice
ED50 vs 9 mg/kg: less than gives yes (1); not less than gives no (0).

Qu. Quick check: does Clc1cccc(N2CCN(CCCc3nnc4n3C[C@H]3CCCC[C@H]3C4)CC2)c1 (relative stereo) [Example 40] have ED50 under 9 mg/kg?
Ans. yes (1)

Others:
Qu. Quick check: does FC(F)(F)c1cccc(N2CCN(CCCc3nnc4n3C[C@H]3CCCC[C@H]3C4)CC2)c1 (relative stereo) [Example 3] have ED50 under 9 mg/kg?
Ans. no (0)

Qu. Quick check: does Clc1cccc(N2CCN(CCc3nnc4n3[C@H]3CCCC[C@@H]3CC4)CC2)c1 (relative stereo) [Example 12] have ED50 under 9 mg/kg?
Ans. no (0)

Qu. Quick check: does FC(F)(F)c1cccc(N2CCN(CCc3nnc4n3C[C@H]3CCCC[C@H]3C4)CC2)c1 (relative stereo) [Example 16] have ED50 under 9 mg/kg?
Ans. no (0)

Qu. Quick check: does FC(F)(F)c1cccc(N2CCN(CCc3nnc4n3CC3CCCCC43)CC2)c1 (centres unmarked) [Example 36] have ED50 under 9 mg/kg?
Ans. yes (1)
